// data source = PubChem BioAssay (NCI)

Reported values of TGI for individual entries
- System: LOX IMVI melanoma
- assay-notes: NCI tumour cell line growth inhibition, 48 h

Solved cases (4 shown):
>  <molecule>
O=C(CBr)NCCc1c[nH]c2ccccc12

>  <TGI>
2.79 µM

$$$$
>  <molecule>
ClCc1ccc(-c2ccc(Cn3cnc4c(Cl)ncnc43)cc2)cc1

>  <TGI>
3.01 µM

$$$$
>  <molecule>
CCOP(=O)(OCC)C(C)(CC)/N=C(\N)NC#N (stereo unspecified)

>  <TGI>
> 100 µM

$$$$
>  <molecule>
COC(=O)[C@@H](NC(=O)c1ccc(CNC(=O)/C(C)=C/c2ccccc2)cc1)C(C)C

>  <TGI>
> 100 µM

$$$$

Suppose we examine the molecule COc1cc(=O)oc(/C=C/CO)c1C ; what TGI value has been reported? > 100 µM

Suppose we examine the molecule CN(C)C1(c2cc3ccccc3s2)CCCCC1 ; what TGI value has been reported? 60.9 µM

Suppose we examine the molecule COC(=O)CC1NC(=O)C1C(C)(OC)OC (stereo unspecified) ; what TGI value has been reported? > 100 µM

Suppose we examine the molecule CC(C)OC(=O)c1cccnc1/C=N/O ; what TGI value has been reported? > 100 µM

Suppose we examine the molecule COC(=O)[C@H](C)[C@@H]1CC[C@](C)(CCC2=C(C)CCCC2(C)C)OO1 ; what TGI value has been reported? > 25 µM

Suppose we examine the molecule O=c1sc(-c2nc3ccccc3[nH]2)c(/N=C/c2ccccc2)n1-c1ccccc1 ; what TGI value has been reported? > 100 µM

Suppose we examine the molecule C=CNC(=S)n1nc(-c2ccccc2NC(=O)C(F)(F)F)c(=O)n(C(=S)NC=C)c1=S ; what TGI value has been reported? > 100 µM

----------
- System: SK-MEL-5 melanoma
- assay-notes: NCI tumour cell line growth inhibition, 48 h
Reported values of TGI for individual entries
Quick reminder: number only, in µM, skip the unit.

Suppose we examine the compound COc1c(OC)c(OC)c(-c2cc(=O)c3c(OC)c(OC)c(OC)c(OC)c3o2)c(OC)c1OC ; what TGI value has been reported? 74.9

Suppose we examine the compound C=CCCCC(O)c1ccc(C(O)c2cnc3ccccc3c2)o1 (stereo not given) ; what TGI value has been reported? 22.4

----------
- Test system: U251 CNS
- assay-notes: NCI tumour cell line growth inhibition, 48 h
recorded-endpoint: TGI

Solved cases (10 shown):
>  <molecule>
CON(C(=O)OC(C)(C)C)c1ccccc1

>  <value-reported>
> 100 µM

$$$$
>  <molecule>
CC/C(=C(/CC)c1ccc(O)cc1)c1ccc(O)cc1

>  <value-reported>
18.2 µM

$$$$
>  <molecule>
O=C(Nc1ccc(Cl)cc1)c1cc2ccccc2cc1OP(=O)(O)O

>  <value-reported>
21.3 µM

$$$$
>  <molecule>
O=C(O)c1ccccc1C1c2ccc(Cl)cc2Oc2cc(Cl)ccc21

>  <value-reported>
> 100 µM

$$$$
>  <molecule>
COc1c(C)c(C/C=C(\C)CCCCO)c(OC)c2ccccc12

>  <value-reported>
> 100 µM

$$$$
>  <molecule>
Cn1c(=O)oc2cc(C(=S)N3CCCCC3)ccc21

>  <value-reported>
> 100 µM

$$$$
>  <molecule>
O=C1NC2OC(CO)C(O)C(O)C2O1 (stereo unspecified)

>  <value-reported>
> 100 µM

$$$$
>  <molecule>
c1ccc(N2N=NC3C4CC(C5c6ccccc6C45)C32)cc1 (stereo unspecified)

>  <value-reported>
> 100 µM

$$$$
>  <molecule>
CC(=O)N1CCN(CCCCN2c3ccccc3Sc3cc(N=[N+]=[N-])ccc32)CC1

>  <value-reported>
27.6 µM

$$$$
>  <molecule>
N#CC(C#N)C1CN2CCC1CC2 (stereo unspecified)

>  <value-reported>
> 100 µM

$$$$

Identify the measured TGI of Cc1nc(-n2nc(-c3ccccc3)cc2-c2ccccc2)sc1C(/C=C/c1ccc([N+](=O)[O-])cc1)=N/NC(N)=S for U251 CNS. > 100 µM

Identify the measured TGI of COc1cc(OC)c(/C=C/C(=O)c2c(O)cc(OC)c(C3CCN(C)CC3)c2OC)c(OC)c1 for U251 CNS. 2.52 µM

Identify the measured TGI of CC(=O)Nc1ccc(Cc2ccc3[nH]c(=O)cc(C)c3c2)cc1 for U251 CNS. > 100 µM

----------
- Test system: HOP-92 NSCLC
- assay-notes: NCI tumour cell line growth inhibition, 48 h
recorded-endpoint: TGI

>  <molecule>
Cc1ccc(Cc2n[nH]c(=O)n2N2C(=O)c3ccccc3C2=O)cc1

>  <target-desc>
HOP-92 NSCLC

>  <TGI>
> 100 µM

$$$$

Suppose we examine the molecule CC1=C(C(=O)NCCCN(CCO)CCO)CC(C(=O)NCCCN(CCO)CCO)=C(C)N1 ; what TGI value has been reported? > 100 µM

Suppose we examine the molecule COCC1N=C(c2cc(OC)c(OC)c(OC)c2-c2cc3c(cc2[C@@H](C)O)OCO3)O[C@H]1c1ccccc1 (stereo not given in full) ; what TGI value has been reported? > 84.5 µM

Suppose we examine the molecule Cc1sc2nc3n(c(=O)c2c1C)N=C(c1ccccc1)CS3 ; what TGI value has been reported? > 100 µM

----------
Reported values of GI50 for individual entries
- Tested on: NCI-H23 lung
- assay-notes: NCI tumour cell line growth inhibition, 48 h

Solved cases (2 shown):
>  <molecule>
CN1CCN(Cn2nc(-c3cc(F)c(Cl)cc3Cl)oc2=S)CC1

>  <recorded-endpoint>
GI50

>  <value-reported>
76.5 µM

$$$$
>  <molecule>
CCN(CC)CC(O)c1cc(-c2ccc(Cl)cc2)nc2cc(Cl)ccc12 (stereo unspecified)

>  <recorded-endpoint>
GI50

>  <value-reported>
1.79 µM

$$$$

Suppose we examine the molecule CCOC(=O)Nc1cc(-c2ccc(C)c(NS(C)(=O)=O)c2)nn2c(C)nnc12 ; what GI50 value has been reported? 1.93 µM

Suppose we examine the molecule CCCCCCn1c2c(c3c(O)cccc31)C(=O)c1ccccc1-2 ; what GI50 value has been reported? 18.4 µM

Suppose we examine the molecule O=C(Nc1ccc(Cl)cc1)c1cc2ccccc2cc1OP(=O)(O)O ; what GI50 value has been reported? 2.42 µM

Suppose we examine the molecule NCCCCCCCCCn1c2c(c3ccccc3c1=O)C(=O)c1ccccc1-2 ; what GI50 value has been reported? 7.94 µM

----------
- System: COLO 205 colon
- assay-notes: NCI tumour cell line growth inhibition, 48 h
Reported values of TGI for individual entries
Quick reminder: number only, in µM, skip the unit.

Solved cases (3 shown):
>  <molecule>
Oc1[nH]c2ccccc2c1/C=c1/ccc2c(c1)N=C(c1cc(F)cc(F)c1)N=2

>  <unit-of-measurement>
µM

>  <TGI>
23.4

$$$$
>  <molecule>
C[C@H]1CCC2C(CN3CCCCC3)C(=O)OC2[C@]2(C)C(=O)CC(N3CCCCC3)C12O (stereo not given in full)

>  <unit-of-measurement>
µM

>  <TGI>
18.6

$$$$
>  <molecule>
COc1ccc(Nc2ncccc2C(=O)NCc2cn(Cc3cccc(Oc4ccccc4)c3)nn2)c(OC)c1

>  <unit-of-measurement>
µM

>  <TGI>
5.7

$$$$

Would you kindly look at the next entry?
Suppose we examine the molecule O=C(Nc1ccc(Cl)cc1)c1cc2ccccc2cc1OP(=O)(O)O ; what TGI value has been reported? 27.8

----------
- Test system: KM12 colon
- assay-notes: NCI tumour cell line growth inhibition, 48 h
recorded-endpoint: TGI

>  <compound>
COC(=O)CN(CC1O[C@@H]2OC(C)(C)O[C@@H]2C1NC(C)=O)C(=O)OCc1ccccc1 (stereo not given in full)

>  <recorded-endpoint>
TGI

>  <value-reported>
> 100 µM

$$$$
>  <compound>
CCSc1[nH]c(NC(=NC(C)C)NC(=O)c2ccccc2)c(C(N)=O)c1C(N)=O

>  <recorded-endpoint>
TGI

>  <value-reported>
> 10 µM

$$$$
>  <compound>
COc1cc(CC2C(=O)OCC2[C@@H](OC(C)=O)c2ccc3c(c2)OCO3)c(Br)c(OC)c1OC (stereo not given in full)

>  <recorded-endpoint>
TGI

>  <value-reported>
> 100 µM

$$$$
>  <compound>
O=C(c1ccccc1)c1c2n(c3c1cc(O)c1ccccc13)CCN2

>  <recorded-endpoint>
TGI

>  <value-reported>
8.88 µM

$$$$
>  <compound>
CC(C)=Cc1cc(C(=O)NCCNC(=O)c2cc(C=C(C)C)nc(NC#N)n2)nc(NC#N)n1

>  <recorded-endpoint>
TGI

>  <value-reported>
> 100 µM

$$$$

Identify the measured TGI of O=C1[C@H](O)[C@@H]2CCC[C@@]23CCCN13 for KM12 colon. > 100 µM

Identify the measured TGI of COc1cc(/C=C/C2=NN(c3cccc(S(=O)(=O)O)c3)C3(C2)SCC(=O)N3c2nc3ccccc3s2)cc(OC)c1OC (stereo not given) for KM12 colon. > 100 µM

Identify the measured TGI of Cc1cc(C)c(C(=O)/C(=C/c2ccccc2)c2ccccc2)c(C)c1 for KM12 colon. > 100 µM

Identify the measured TGI of C=CC(=C)CCC(Br)C(C)(C)Cl (stereo not given) for KM12 colon. > 100 µM

Identify the measured TGI of C=C1CCC2(C(C)=O)COC1(C)O2 (stereo not given) for KM12 colon. > 100 µM
